These measurements were taken from patent US12037395.

target: T1, recombinant human PD-1-his (Sino biological, #10377-H08H) (human, UniProt Q15116 25-167); assay: SPR (Biacore T200), antibody captured, antigen flowed
T1 construct: Bought protein; also called Human PD-1-his protein; not shown: his tag
T1 sequence (Q15116 25-167 limits assumed): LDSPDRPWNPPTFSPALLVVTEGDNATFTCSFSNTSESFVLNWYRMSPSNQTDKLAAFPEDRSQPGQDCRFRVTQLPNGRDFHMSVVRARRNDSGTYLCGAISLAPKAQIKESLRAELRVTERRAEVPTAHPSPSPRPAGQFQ
measurementLabel: koff
In your response, put the unit directly after the numeric value.

Incoming: Consider the binder mouse anti-PD-1 monoclonal antibody D1F2 (antibody, mouse IgG1, kappa, V domains shown, Purified from hybridoma; Constant regions tied only generically to 'mouse antibodies') VH: EVMLVESGGGLVKPGGSLKLSCAASGFTFSSYTMSWVRQTPEKRLEWVATISGGGSNIYYPDSVEGRFTVSRDNARNTLYLHMSSLRSEDTALYYCVLNYAYAMDYWGQGTSVTVSS VL: DIQMTQTTSSLSASLGDRVTISCRASQDISNFLNWYQQKPDGTVKLLIYYTSRLQSGVPSRFSGTGSGTDYSLTISNLEQEDLATYFCQQGSSLPWTFGGGTKLEIKR and give its recorded koff.
Outgoing: 0.000203 s⁻¹
